system: U251 CNS; experiment: NCI tumour cell line growth inhibition, 48 h
Outcome measure: TGI

INSERT INTO results (compound, result) VALUES
  ('CO[C@@]12C[C@@H](CNC(=O)c3cc(Br)c[nH]3)O[C@@H]1NC(=O)N2', '> 100 µM'),
  ('CCOC(=O)C(NC(=O)NCc1ccc(F)cc1)C(F)(F)F (stereo not drawn)', '> 100 µM'),
  ('C=CCNC(NCC=C)=C(C(Cl)=C(Cl)Cl)[N+](=O)[O-]', '> 100 µM');

----------
test system: SF-268 CNS; experiment: NCI tumour cell line growth inhibition, 48 h
Measured TGI accompanies every entry in the list below.
Outcome measure: TGI (µM)

INSERT INTO results (item_smiles, qual, number) VALUES
  ('O=S(=O)(NCCNc1cc(-c2cn(-c3ccccc3)nc2-c2cccc(O)c2)ccn1)c1ccc(F)cc1', '=', 8.93),
  ('Cc1c(Cl)c(=O)oc2cc(OCC(=O)c3ccccc3)ccc12', '>', 100),
  ('CC(=O)CCC(=O)CC(O)(C(F)(F)F)C(F)(F)F', '=', 44.6);

----------
tested on: HT29 colon; assay: NCI tumour cell line growth inhibition, 48 h
Measured TGI accompanies every entry in the list below.
Outcome measure: TGI (µM)

INSERT INTO assay_data (compound, unit_annotation, qual, number) VALUES
  ('CN(C)Cc1cc(C(=O)/C=C/c2c(Cl)cccc2Cl)cc(CN(C)C)c1O', 'µM', '=', 11.6),
  ('Cc1cc(Nc2nc(N3CCOCC3)nc3ccccc23)n[nH]1', 'µM', '=', 52.8),
  ('CC(C)[Si](OCC/C=C/C1CCC(=O)C1C(O)C1CCCCC1)(C(C)C)C(C)C (configuration not stated)', 'µM', '=', 26.2),
  ('COc1nc(C#CCCCC#N)nc(OC)n1', 'µM', '>', 100),
  ('CO/C=C/c1cc2c(cc1C(OC)OC)OCO2', 'µM', '>', 100),
  ('Cc1ccc(NC(=O)/C(=N/NC(=O)CC#N)C2C(=O)N(c3ccccc3)N=C2N)cc1C (configuration not stated)', 'µM', '>', 100),
  ('CCC1=NC(N/N=C/c2ccccc2O)=N/C1=C\c1ccccc1O', 'µM', '=', 37.5);

----------
system: DMS 114 small cell lung; test: NCI tumour cell line growth inhibition, 48 h
Outcome measure: TGI

INSERT INTO results (item_smiles, result) VALUES
  ('CC(C)(C)c1cc(N=NC(=S)NCc2ccccc2)cc(C(C)(C)C)c1O', '> 100 µM'),
  ('CCOC(=O)C(=O)Nc1ccc([N+](=O)[O-])cc1C#N', '> 100 µM'),
  ('O=C(O/N=C1/CCC/C1=C\c1ccccc1)c1ccccc1', '> 100 µM');

----------
tested on: HOP-92 NSCLC; experiment: NCI tumour cell line growth inhibition, 48 h
Outcome measure: TGI

INSERT INTO measurements (compound, result) VALUES
  ('OC1OC(c2ccc[nH]2)C(F)(F)C(F)(F)C1(F)F (stereo unspecified)', '> 100 µM'),
  ('Cc1ccc2nc(CN3CCCCC3)cc(=O)n2c1', '> 100 µM'),
  ('COC(=O)c1cccc(C)c1C1CN=NC12Cc1c(ccc(C)c1C)C2=O (stereo unspecified)', '> 100 µM'),
  ('CC1=C(C(=O)OC23CC4CC(CC(C4)C2)C3)C(c2ccccc2OC(F)F)C(C(=O)OC23CC4CC(CC(C4)C2)C3)=C(C)N1 (stereo unspecified)', '> 100 µM'),
  ('C/C(=C\c1ccn(-c2ccc(N)cc2C(F)(F)F)n1)[C@@H]1C[C@@H]2O[C@]2(C)CCC[C@H](C)[C@H](O)[C@@H](C)C(=O)C(C)(C)[C@@H](O)CC(=O)O1', '> 11.1 µM'),
  ('CC(=O)/C(=C/N1C(=O)CC(=O)NC1=S)C(=O)Nc1ccccc1C', '> 100 µM'),
  ('Cc1nn(-c2ccccc2)c2nc3c(c(C)nn3-c3ccccc3)c(-c3ccccc3Br)c12', '> 100 µM'),
  ('CNC(=O)C(C)NC(=O)C(Cc1ccccc1)NC(=O)OC(C)(C)C (stereo unspecified)', '> 100 µM'),
  ('Cc1ccc(C2=NN(C)COC2C(F)(F)F)cc1 (stereo unspecified)', '> 100 µM'),
  ('C#CCOC(=O)C(N)CS (stereo unspecified)', '> 100 µM'),
  ('COC1CCC(OS(C)(=O)=O)CO1 (stereo unspecified)', '> 100 µM'),
  ('c1cncc(-c2cc(-c3cc(-c4cccnc4)n[nH]3)[nH]n2)c1', '> 100 µM'),
  ('CC(=O)NNc1nc(C)c(C(/C=C/c2ccccc2O)=N/NC(=O)c2ccncc2)s1', '> 100 µM'),
  ('NC(=S)N/N=C1\C(=O)N(c2cccc([N+](=O)[O-])c2)C(=O)C1C(=O)Nc1cccc([N+](=O)[O-])c1 (stereo unspecified)', '> 100 µM'),
  ('COc1c(C(=O)O)cccc1-c1cccc(C(=O)NCCN(CCNC(=O)c2cccc(-c3cccc(C(=O)O)c3OC)c2OC)CCNC(=O)c2cccc(-c3cccc(C(=O)O)c3OC)c2OC)c1OC', '> 100 µM'),
  ('CCC1=NC(N/N=C/c2ccccc2O)=N/C1=C\c1ccccc1O', '> 84 µM'),
  ('CO/C=C/c1cc2c(cc1C(OC)OC)OCO2', '> 100 µM'),
  ('O[C@H]1[C@H]2[C@H](O)CCCN2C[C@H]1O', '> 100 µM'),
  ('c1cc2[se][se]c3c4cccc5[se][se]c(c(c1)c23)c54', '> 100 µM'),
  ('C/C(=C\c1csc(C)n1)[C@@H]1C[C@@H]2O[C@]2(C)CCC[C@H](C)[C@H](O)[C@@H](C)C(=O)C(C)(C)[C@@H](O)CC(=O)O1 (tested in a mixture with another compound)', '> 1 µM'),
  ('CC[N+](CC)(CC)Cc1cn(S(=O)(=O)c2ccccc2)c2ccccc12', '> 100 µM');

----------
system: RXF 393 renal; test: NCI tumour cell line growth inhibition, 48 h
Outcome measure: TGI

INSERT INTO measurements (compound, result) VALUES
  ('CCOC(=O)C(=O)Nc1ccc([N+](=O)[O-])cc1C#N', '> 100 µM'),
  ('Cc1cc(C)n(C(=O)C(C)Sc2nnc(SC(C)C(=O)n3nc(C)cc3C)s2)n1 (stereo not drawn)', '> 100 µM'),
  ('OCC1OC(O)C(N=Cc2ccc3c(c2)OCO3)C(O)C1O (stereo not drawn)', '> 100 µM'),
  ('CNC(=O)C(C)NC(=O)C(Cc1ccccc1)NC(=O)OC(C)(C)C (stereo not drawn)', '> 100 µM'),
  ('C=C1[C@H](OCC(C)C)[C@@H](OCC(C)C)[C@@H](O)C(C)(C)/C=C/[C@H](C)C(=O)[C@@]2(O)C[C@H](C)[C@H](O)[C@@H]2[C@H]1OCC(C)C', '> 7.5 µM'),
  ('C=C1C(C2(C)C=CC(=O)OC3(C)COC(=O)CC32)C(OC=O)C(OC(=O)C(O)C(C)CC)C2(C)C(c3ccoc3)CC(OC(C)=O)C12O (stereo not drawn)', '> 100 µM'),
  ('COc1ccc(OC)c2c(=O)cc(-c3ccccc3)[nH]c12', '> 100 µM'),
  ('CCOC(=O)C(NC(=O)NCc1ccc(F)cc1)C(F)(F)F (stereo not drawn)', '> 100 µM'),
  ('NC(=S)N/N=C1\C(=O)N(c2cccc([N+](=O)[O-])c2)C(=O)C1C(=O)Nc1cccc([N+](=O)[O-])c1 (stereo not drawn)', '> 100 µM'),
  ('CC1C(c2ccccc2)=CCON1c1ccccc1 (stereo not drawn)', '> 100 µM'),
  ('O=C1NC(=O)[C@H]2C3C=CC([C@@H]12)[C@@H]1C(=O)NC(=O)[C@H]31', '> 100 µM'),
  ('COC(=O)C1=C(C(=O)OC)C(C(=O)c2ccccc2)N2N=C(c3ccc(Cl)cc3)C=CC12 (stereo not drawn)', '> 100 µM'),
  ('CC1(C)OC(=O)C=C(O)O1.CC1(C)OC(=O)C=C(O)O1.CCO.Oc1ccc2c(c1)CCC2.[Ti]', '> 100 µM'),
  ('O=C(O)c1ccccc1C(=O)OCC1CCCN2CCCCC12 (stereo not drawn)', '> 100 µM'),
  ('Clc1ccc2c(Cl)ncnc2c1I', '> 100 µM'),
  ('OC1OC(c2ccc[nH]2)C(F)(F)C(F)(F)C1(F)F (stereo not drawn)', '> 100 µM'),
  ('O=C(/C=C(\O)C(=O)O)/C=C(\O)c1ccccc1Cl', '> 100 µM'),
  ('O=C1OC2(c3ccccc31)c1cc(I)c(O)c(I)c1Oc1c2cc(I)c(O)c1I', '> 100 µM'),
  ('CCOC(=O)C1C(C(C)C)C2(C#N)C(=N)OC1(C)C2(C#N)C#N (stereo not drawn)', '> 100 µM'),
  ('CC(=O)[CH-]C(C)=O.CC(=O)[CH-]C(C)=O.CC(=O)[CH-]C(C)=O.[Cl-].[Hf+4]', '> 100 µM'),
  ('NC(=S)Nc1nnc(-c2ccc(-c3nnc(NC(N)=S)o3)cc2)o1', '> 100 µM'),
  ('O=C1CC(c2ccccc2)NCN1 (stereo not drawn)', '> 100 µM'),
  ('CCOC(=O)C1=C(C)C2C3C(=O)NC(=O)C3C1(C)C1C(=O)NC(=O)C21 (stereo not drawn)', '> 100 µM');
